Biological target: T1, Fc-labeled CD70 antigen
T1 construct: soluble antigen used at 1:100 to stain CAR-T cells; also called detected with the secondary antibody PE-Fc (axis label PE-Fc)
T1 sequence (P32970 whole entry, species assumed, looked up): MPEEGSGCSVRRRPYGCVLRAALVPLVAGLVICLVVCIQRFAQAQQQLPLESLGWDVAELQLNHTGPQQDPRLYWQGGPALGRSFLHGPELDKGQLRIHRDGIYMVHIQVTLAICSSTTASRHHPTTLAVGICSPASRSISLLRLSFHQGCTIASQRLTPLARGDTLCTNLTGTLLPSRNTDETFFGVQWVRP
Experiment: flow cytometry: CAR-transduced T cells stained with Fc-labeled CD70 antigen (1:100) and secondary antibody PE-Fc; NT control 0.79
value_kind: CD70 CAR+ (positive rate of the cells) (%)
The response must be a number in % with no trailing unit.

Q: Consider the binder 11C9-BBz (other, also called CD70-11C9-BBz) chimeric antigen receptor chain: QVQLVESGGGLVQPGGSLRLSCAASGFTLDYYAVGWFRQAPGKEREGVSCISSSSDGSTYYVDSVLGRFTISRNNAENTVYLQMNSLKPEDTAVYYCSTDVLTSCRSDRYLEVWGQGTLVTVSGTTTPAPRPPTPAPTIASQPLSLRPEACRPAAGGAVHTRGLDFACDIYIWAPLAGTCGVLLLSLVITLYCRFSVVKRGRKKLLYIFKQPFMRPVQTTQEEDGCSCRFPEEEEGGCELRVKFSRSADAPAYQQGQNQLYNELNLGRREEYDVLDKRRGRDPEMGGKPRRKNPQEGLYNELQKDKMAEAYSEIGMKGERRRGKGHDGLYQGLSTATKDTYDALHMQALPPR and give its measured CD70 CAR+ (positive rate of the cells).
Result: 70.9
